Sourced from patent US20250295799A1

- tgt: T1, human glypican-3 (GPC3) (human, UniProt P51654 25-554)
- T1 construct: Endogenous on JHH-7, JHH-5, HepG2 and NCI-H446 tumour cells, or transiently expressed on CHO-S cells from a pTT5 plasmid; also called hGPC3; huGPC3
- assayProcedure: flow cytometry on JHH-5 cells; antibody after 14 days in mouse plasma at 37 C
Entries and their Kd values follow.
Reply with just the number (in pM).

# count of solved cases: 2
{"columns": ["binder", "numericReadout"],
 "data": [
  ["H18L6_LC_G34Q mAb, v40208 (antibody, human IgG1, kappa, V domains shown, Full-size IgG1/kappa) VH: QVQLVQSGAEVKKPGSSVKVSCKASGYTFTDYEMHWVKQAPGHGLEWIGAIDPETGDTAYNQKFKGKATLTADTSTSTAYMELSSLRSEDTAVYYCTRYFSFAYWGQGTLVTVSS VL: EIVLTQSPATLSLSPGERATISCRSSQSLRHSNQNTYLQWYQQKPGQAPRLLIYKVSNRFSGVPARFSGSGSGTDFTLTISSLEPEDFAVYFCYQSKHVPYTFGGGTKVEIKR", 150],
  ["H18L6_LC_G34E mAb, v40204 (antibody, human IgG1, kappa, V domains shown, M3-H18L6 chains with the stated light chain point mutation, IgG1/kappa) VH: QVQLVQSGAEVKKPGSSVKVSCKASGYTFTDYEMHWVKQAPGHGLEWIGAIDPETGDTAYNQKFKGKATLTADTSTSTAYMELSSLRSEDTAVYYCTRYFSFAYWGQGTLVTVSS VL: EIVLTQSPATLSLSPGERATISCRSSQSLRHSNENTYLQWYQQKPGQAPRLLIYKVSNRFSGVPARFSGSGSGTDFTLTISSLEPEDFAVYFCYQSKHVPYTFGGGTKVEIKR", 260]
]}

Asked: Record request: Kd value, item H18L6_LC_G34R mAb, v40206 (antibody, human IgG1, kappa, V domains shown, Full-size IgG1/kappa) VH: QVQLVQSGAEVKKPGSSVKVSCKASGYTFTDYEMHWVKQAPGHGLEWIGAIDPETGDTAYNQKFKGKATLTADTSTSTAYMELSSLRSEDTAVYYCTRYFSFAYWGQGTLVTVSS VL: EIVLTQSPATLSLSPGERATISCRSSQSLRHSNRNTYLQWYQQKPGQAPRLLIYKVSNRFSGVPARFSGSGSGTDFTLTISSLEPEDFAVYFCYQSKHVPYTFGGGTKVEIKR
Given back: 210
